For each entry below, report its Eos value.
organism: Rattus norvegicus; assay: Open TG-GATES - Regimen: Single; format: toxicity, organism-based, Sprague-Dawley; parameters: regimen Single, gender Male, age 6 weeks; details: in vivo, po, 0 mg/kg, 24 h, tissue Blood, route gavage, dose level Control
Give your result in % as a bare value.

Qu. Given the compound Nc1ccc(Cc2ccc(N)cc2)cc1 , write its reported Eos.
Ans. 1

Qu. Given the compound CN(CCOc1ccc(CC2SC(=O)NC2=O)cc1)c1ccccn1.O=C(O)/C=C\C(=O)O (stereo not given) [ROSIGLITAZONE MALEATE] , write its reported Eos.
Ans. 1

Qu. Given the compound NS(=O)(=O)c1cc(C(=O)O)c(NCc2ccco2)cc1Cl [FUROSEMIDE] , write its reported Eos.
Ans. 1

Qu. Given the compound COc1cc2ncnc(Nc3ccc(F)c(Cl)c3)c2cc1OCCCN1CCOCC1 , write its reported Eos.
Ans. 1

Qu. Given the compound CCCCNC(=O)NS(=O)(=O)c1ccc(C)cc1 [TOLBUTAMIDE] , write its reported Eos.
Ans. 1.2

Qu. Given the compound O=C(O)c1ccccc1Nc1ccccc1 , write its reported Eos.
Ans. 1

Qu. Given the compound CC(=O)[C@@]1(O)CC[C@H]2[C@@H]3C=C(Cl)C4=CC(=O)CC[C@]4(C)[C@H]3CC[C@@]21C , write its reported Eos.
Ans. 0.8

Qu. Given the compound O=c1ccc2ccccc2o1 , write its reported Eos.
Ans. 0.8

Qu. Given the compound CC(S)C(=O)NCC(=O)O (stereo not given) , write its reported Eos.
Ans. 1

Qu. Given the compound CN(C)CCCN1c2ccccc2Sc2ccc(Cl)cc21 , write its reported Eos.
Ans. 1.2

Qu. Given the compound C=C[C@H]1C[N@@]2CC[C@H]1C[C@@H]2[C@@H](O)c1ccnc2ccc(OC)cc12 , write its reported Eos.
Ans. 0.8

Qu. Given the compound CN(C/C=C/C#CC(C)(C)C)Cc1cccc2ccccc12 , write its reported Eos.
Ans. 1

Qu. Given the compound CCN(CC)C(=S)SSC(=S)N(CC)CC , write its reported Eos.
Ans. 1

Qu. Given the compound CCO , write its reported Eos.
Ans. 1.4

Qu. Given the compound COc1ccc([C@@H]2Sc3ccccc3N(CCN(C)C)C(=O)[C@@H]2OC(C)=O)cc1 , write its reported Eos.
Ans. 1

###

species: Rattus norvegicus; assay: Open TG-GATES - Regimen: Single; format: toxicity, organism-based, Sprague-Dawley; design: regimen Single, gender Male, age 6 weeks; conditions: in vivo, po, 0 mg/kg, 6 h, tissue Blood, route gavage, dose level Control
For each entry below, report its Hb value.
State the result as a value with its unit after it.

Qu. Given the compound CCO [ALCOHOL] , write its reported Hb.
Ans. 13.9 g/dL

Qu. Given the compound CCN(CC)C(=S)SSC(=S)N(CC)CC , write its reported Hb.
Ans. 12.8 g/dL

Qu. Given the compound COc1ccc([C@@H]2Sc3ccccc3N(CCN(C)C)C(=O)[C@@H]2OC(C)=O)cc1 [DILTIAZEM] , write its reported Hb.
Ans. 13.3 g/dL

Qu. Given the compound CN(C)CCCN1c2ccccc2Sc2ccc(Cl)cc21 [CHLORPROMAZINE] , write its reported Hb.
Ans. 13.4 g/dL

Qu. Given the compound O=c1ccc2ccccc2o1 [COUMARIN] , write its reported Hb.
Ans. 13.5 g/dL

Qu. Given the compound Nc1ccc(Cc2ccc(N)cc2)cc1 , write its reported Hb.
Ans. 13 g/dL

Qu. Given the compound CCCCNC(=O)NS(=O)(=O)c1ccc(C)cc1 [TOLBUTAMIDE] , write its reported Hb.
Ans. 13.6 g/dL

Qu. Given the compound CC(=O)[C@@]1(O)CC[C@H]2[C@@H]3C=C(Cl)C4=CC(=O)CC[C@]4(C)[C@H]3CC[C@@]21C [CHLORMADINONE] , write its reported Hb.
Ans. 13.3 g/dL

Qu. Given the compound CC(S)C(=O)NCC(=O)O (stereo not drawn) [TIOPRONIN] , write its reported Hb.
Ans. 13 g/dL

Qu. Given the compound NS(=O)(=O)c1cc(C(=O)O)c(NCc2ccco2)cc1Cl [FUROSEMIDE] , write its reported Hb.
Ans. 13.1 g/dL

Qu. Given the compound CN(CCOc1ccc(CC2SC(=O)NC2=O)cc1)c1ccccn1.O=C(O)/C=C\C(=O)O (stereo not drawn) [ROSIGLITAZONE MALEATE] , write its reported Hb.
Ans. 13.2 g/dL

Qu. Given the compound CN(C/C=C/C#CC(C)(C)C)Cc1cccc2ccccc12 [TERBINAFINE] , write its reported Hb.
Ans. 13.7 g/dL

Qu. Given the compound O=C(O)c1ccccc1Nc1ccccc1 [FENAMIC ACID] , write its reported Hb.
Ans. 13.2 g/dL

###

species on record: Rattus norvegicus; test: Open TG-GATES - Regimen: Single; type: toxicity, organism-based, Sprague-Dawley; design: regimen Single, gender Male, age 6 weeks; conditions: in vivo, po, 0 mg/kg, 9 h, tissue Liver, route gavage, dose level Control
measured.attribute: LIVER (g)
Give your result in g as a bare value.

Qu. Given the compound O=C(O)c1ccccc1Nc1ccccc1 , write its reported LIVER.
Ans. 7.9

Qu. Given the compound Nc1ccc(Cc2ccc(N)cc2)cc1 , write its reported LIVER.
Ans. 7.8

Qu. Given the compound CC(=O)[C@@]1(O)CC[C@H]2[C@@H]3C=C(Cl)C4=CC(=O)CC[C@]4(C)[C@H]3CC[C@@]21C , write its reported LIVER.
Ans. 9.4

Qu. Given the compound CN(C/C=C/C#CC(C)(C)C)Cc1cccc2ccccc12 , write its reported LIVER.
Ans. 9.3

Qu. Given the compound CC(S)C(=O)NCC(=O)O (configuration not stated) , write its reported LIVER.
Ans. 9.1

Qu. Given the compound CCO , write its reported LIVER.
Ans. 8.3

Qu. Given the compound COc1cc2ncnc(Nc3ccc(F)c(Cl)c3)c2cc1OCCCN1CCOCC1 , write its reported LIVER.
Ans. 9

Qu. Given the compound CCCCNC(=O)NS(=O)(=O)c1ccc(C)cc1 [TOLBUTAMIDE] , write its reported LIVER.
Ans. 7.9

Qu. Given the compound CN(CCOc1ccc(CC2SC(=O)NC2=O)cc1)c1ccccn1.O=C(O)/C=C\C(=O)O (configuration not stated) [ROSIGLITAZONE MALEATE] , write its reported LIVER.
Ans. 8.8

Qu. Given the compound COc1ccc([C@@H]2Sc3ccccc3N(CCN(C)C)C(=O)[C@@H]2OC(C)=O)cc1 , write its reported LIVER.
Ans. 6.9

Qu. Given the compound O=c1ccc2ccccc2o1 , write its reported LIVER.
Ans. 7.4

Qu. Given the compound CN(C)CCCN1c2ccccc2Sc2ccc(Cl)cc21 , write its reported LIVER.
Ans. 9

###

species on record: Rattus norvegicus; assay: Open TG-GATES - Regimen: Single; format: toxicity, organism-based, Sprague-Dawley; set-up: regimen Single, gender Male, age 6 weeks; conditions: in vivo, po, 0 mg/kg, 3 h, tissue Blood, route gavage, dose level Control
For each entry below, report its Mono value.

Qu. Given the molecule CN(C)CCCN1c2ccccc2Sc2ccc(Cl)cc21 [CHLORPROMAZINE] , write its reported Mono.
Ans. 2.6%

Qu. Given the molecule COc1cc2ncnc(Nc3ccc(F)c(Cl)c3)c2cc1OCCCN1CCOCC1 [GEFITINIB] , write its reported Mono.
Ans. 2.6%

Qu. Given the molecule CC(S)C(=O)NCC(=O)O (stereo not given) [TIOPRONIN] , write its reported Mono.
Ans. 1.4%

Qu. Given the molecule O=c1ccc2ccccc2o1 [COUMARIN] , write its reported Mono.
Ans. 4.8%

Qu. Given the molecule CCCCNC(=O)NS(=O)(=O)c1ccc(C)cc1 [TOLBUTAMIDE] , write its reported Mono.
Ans. 2.8%

###

For each entry below, report its RBC value.
organism: Rattus norvegicus; test: Open TG-GATES - Regimen: Daily Repeat; assay type: toxicity, organism-based, Sprague-Dawley; design: regimen Daily Repeat, gender Male, age 6 weeks; details: in vivo, po, 0 mg/kg, 72 h, tissue Blood, route gavage, dose level Control, time 3 day
Give your result in x10_4/ul as a bare value.

Qu. Given the compound CN(C/C=C/C#CC(C)(C)C)Cc1cccc2ccccc12 , write its reported RBC.
Ans. 629

Qu. Given the compound CCO , write its reported RBC.
Ans. 656.4

Qu. Given the compound COc1ccc([C@@H]2Sc3ccccc3N(CCN(C)C)C(=O)[C@@H]2OC(C)=O)cc1 , write its reported RBC.
Ans. 613.4

Qu. Given the compound CN(CCOc1ccc(CC2SC(=O)NC2=O)cc1)c1ccccn1.O=C(O)/C=C\C(=O)O (stereo not given) [ROSIGLITAZONE MALEATE] , write its reported RBC.
Ans. 615.6

Qu. Given the compound NS(=O)(=O)c1cc(C(=O)O)c(NCc2ccco2)cc1Cl [FUROSEMIDE] , write its reported RBC.
Ans. 629.2

Qu. Given the compound CC(S)C(=O)NCC(=O)O (stereo not given) , write its reported RBC.
Ans. 647.2

Qu. Given the compound CC(=O)[C@@]1(O)CC[C@H]2[C@@H]3C=C(Cl)C4=CC(=O)CC[C@]4(C)[C@H]3CC[C@@]21C , write its reported RBC.
Ans. 656

Qu. Given the compound CCCCNC(=O)NS(=O)(=O)c1ccc(C)cc1 [TOLBUTAMIDE] , write its reported RBC.
Ans. 686.4

Qu. Given the compound CCN(CC)C(=S)SSC(=S)N(CC)CC , write its reported RBC.
Ans. 609

Qu. Given the compound O=c1ccc2ccccc2o1 , write its reported RBC.
Ans. 617.8

Values compiled from ChEMBL document CHEMBL3885861.
